Test Protocol: In vivo PK, i.v. dosing
Run Conditions: male, Sprague-Dawley, rat, plasma, iv, 0.5 mg/kg
Property Measured: Vd at 1 h

State the recorded Vd at 1 h for this entry: `COCCNc1ccc(CN(CC2CC2)C(=O)c2ccc(S(=O)(=O)Nc3ccccc3)cc2)nc1` 10.9 L/kg

====

Test Protocol: In vivo PK, i.v. dosing
Run Conditions: male, Sprague-Dawley, rat, plasma, iv, 0.2 mg/kg
Property Measured: half-life at 1 h (min)
Numbers only here, please. The scale is min.

Recorded half-life at 1 h of `N#CCCN(Cc1ccncc1)C(=O)c1ccc(S(=O)(=O)Nc2ccccc2)cc1` , please. 18

Provenance of the data: paper PMC11726654
